IC50 overview
Target: HLA-DR DRB1*1501 (DR15) (Homo sapiens, UniProt P01903+P01911)
Experiment: biochemical
Assay type: binding
Details: DRBI *1501
No end group written: not given here.

[
  {
    "substance": "SFLQNPQTSLTFSES",
    "unit_tag": "nM",
    "modifier": "=",
    "IC50": 1510
  },
  {
    "substance": "RTITADTFRKLFRVY",
    "unit_tag": "nM",
    "modifier": "=",
    "IC50": 35
  },
  {
    "substance": "FLYGALLLAEGFYTTGAVRQ",
    "unit_tag": "nM",
    "modifier": "=",
    "IC50": 45
  },
  {
    "substance": "LKLVYRDDFPYAVCR",
    "unit_tag": "nM",
    "modifier": "=",
    "IC50": 1880
  },
  {
    "substance": "LTELYFEKGEYFVEM",
    "unit_tag": "nM",
    "modifier": ">",
    "IC50": 2370
  },
  {
    "substance": "LRTIQQLLMGTVNIV",
    "unit_tag": "nM",
    "modifier": "=",
    "IC50": 265
  },
  {
    "substance": "SEVYDFAFADLTVVY",
    "unit_tag": "nM",
    "modifier": "=",
    "IC50": 955
  },
  {
    "substance": "LRTLQQMLLGTLQVV",
    "unit_tag": "nM",
    "modifier": "=",
    "IC50": 1700
  },
  {
    "substance": "NGVLQGITSWGPEPC",
    "unit_tag": "nM",
    "modifier": "=",
    "IC50": 835
  },
  {
    "substance": "SNLELLRICLLLIQS",
    "unit_tag": "nM",
    "modifier": "=",
    "IC50": 90
  },
  {
    "substance": "MTLYQIQVMKRNQKQ",
    "unit_tag": "nM",
    "modifier": "=",
    "IC50": 2430
  },
  {
    "substance": "ALLIIPPKIHISIEL",
    "unit_tag": "nM",
    "modifier": "=",
    "IC50": 1820
  },
  {
    "substance": "ENPVVAFFKNIVTPR",
    "unit_tag": "nM",
    "modifier": "=",
    "IC50": 2.8
  },
  {
    "substance": "SNLELLRISLLLIQS",
    "unit_tag": "nM",
    "modifier": "=",
    "IC50": 59
  },
  {
    "substance": "NPVVHFFKNIVT",
    "unit_tag": "nM",
    "modifier": "=",
    "IC50": 23
  },
  {
    "substance": "YKFLFTDLRIVYRDN",
    "unit_tag": "nM",
    "modifier": "=",
    "IC50": 2910
  },
  {
    "substance": "KLKLYTGEATRTGDR",
    "unit_tag": "nM",
    "modifier": "=",
    "IC50": 18
  },
  {
    "substance": "LDIYQKLYIKQEEQK",
    "unit_tag": "nM",
    "modifier": "=",
    "IC50": 47
  },
  {
    "substance": "KATLQDIVLHLEPQN",
    "unit_tag": "nM",
    "modifier": "=",
    "IC50": 6970
  },
  {
    "substance": "HFFKNIVTPRTPPY",
    "unit_tag": "nM",
    "modifier": "=",
    "IC50": 460
  },
  {
    "substance": "HFNMLKNKMQSSFFM",
    "unit_tag": "nM",
    "modifier": "=",
    "IC50": 616
  },
  {
    "substance": "TTLLRALGAQKEAIS",
    "unit_tag": "nM",
    "modifier": "=",
    "IC50": 89
  },
  {
    "substance": "YLAMPFATPMEAELARRSLA",
    "unit_tag": "nM",
    "modifier": "=",
    "IC50": 865
  },
  {
    "substance": "VCGERGFFYTPKTRR",
    "unit_tag": "nM",
    "modifier": ">",
    "IC50": 25600
  },
  {
    "substance": "FLRIVQTRSVEGSTGF",
    "unit_tag": "nM",
    "modifier": "=",
    "IC50": 9.8
  },
  {
    "substance": "FVNQHLCGSHLVEAL [FVNQHLCGSHLVEAL]",
    "unit_tag": "nM",
    "modifier": "=",
    "IC50": 1200
  },
  {
    "substance": "VEALYLVCGERGSFY",
    "unit_tag": "nM",
    "modifier": "=",
    "IC50": 1240
  },
  {
    "substance": "YGRILHYLKAKEDSH [YORILHYLKAKBDSH]",
    "unit_tag": "nM",
    "modifier": "=",
    "IC50": 16
  },
  {
    "substance": "LKELIKVGLPSFENL",
    "unit_tag": "nM",
    "modifier": "=",
    "IC50": 361
  },
  {
    "substance": "YLVCGERGFFYTPKT",
    "unit_tag": "nM",
    "modifier": "=",
    "IC50": 10700
  },
  {
    "substance": "GRLEYTLKDRRNFDI",
    "unit_tag": "nM",
    "modifier": "=",
    "IC50": 168
  },
  {
    "substance": "VLFLQMMNVNLQKQL",
    "unit_tag": "nM",
    "modifier": "=",
    "IC50": 8200
  },
  {
    "substance": "VLDLYPEPTDLYCYE",
    "unit_tag": "nM",
    "modifier": "=",
    "IC50": 21600
  },
  {
    "substance": "FENLVAENVKPPKVD",
    "unit_tag": "nM",
    "modifier": ">",
    "IC50": 50800
  },
  {
    "substance": "YLVCGERGFLYTPKT",
    "unit_tag": "nM",
    "modifier": ">",
    "IC50": 25600
  },
  {
    "substance": "RQEILDLWVYHTQGF",
    "unit_tag": "nM",
    "modifier": "=",
    "IC50": 985
  },
  {
    "substance": "RVPVSHSFPHPLYNM",
    "unit_tag": "nM",
    "modifier": "=",
    "IC50": 5520
  },
  {
    "substance": "IDGVNHQHLPARRAE",
    "unit_tag": "nM",
    "modifier": ">",
    "IC50": 36800
  },
  {
    "substance": "EVFFQRLGIASGRAR",
    "unit_tag": "nM",
    "modifier": "=",
    "IC50": 4560
  },
  {
    "substance": "DFAFADLTVVYREGN",
    "unit_tag": "nM",
    "modifier": "=",
    "IC50": 4920
  },
  {
    "substance": "HQAISPRTLNGPGPGSPAIF",
    "unit_tag": "nM",
    "modifier": "=",
    "IC50": 5570
  },
  {
    "substance": "NHLINTPKIMPHHII",
    "unit_tag": "nM",
    "modifier": "=",
    "IC50": 560
  },
  {
    "substance": "NMSLLKHQSLRPDED [NMSLLKHQSLRPDED]",
    "unit_tag": "nM",
    "modifier": ">",
    "IC50": 30300
  },
  {
    "substance": "ALWRVSAEEY",
    "unit_tag": "nM",
    "modifier": ">",
    "IC50": 15300
  },
  {
    "substance": "FVVYRDSIPHAACHK",
    "unit_tag": "nM",
    "modifier": "=",
    "IC50": 349
  },
  {
    "substance": "LQDVVLELTPQTEID",
    "unit_tag": "nM",
    "modifier": ">",
    "IC50": 33100
  },
  {
    "substance": "DIRILQELLMGSFGI",
    "unit_tag": "nM",
    "modifier": "=",
    "IC50": 1620
  },
  {
    "substance": "LRVVQQLLMGALTVT",
    "unit_tag": "nM",
    "modifier": "=",
    "IC50": 56
  },
  {
    "substance": "RNFYVINRLTGYLRN",
    "unit_tag": "nM",
    "modifier": "=",
    "IC50": 18
  },
  {
    "substance": "YGAVVNLRKTVVNFP",
    "unit_tag": "nM",
    "modifier": "=",
    "IC50": 470
  },
  {
    "substance": "GVILYSDPADYFAPG",
    "unit_tag": "nM",
    "modifier": "=",
    "IC50": 965
  },
  {
    "substance": "WYRYSVYGTTLEKLT",
    "unit_tag": "nM",
    "modifier": "=",
    "IC50": 421
  },
  {
    "substance": "YDPLYCESVHNFTLP",
    "unit_tag": "nM",
    "modifier": "=",
    "IC50": 2140
  },
  {
    "substance": "NGVLQGITSWGSEPC",
    "unit_tag": "nM",
    "modifier": "=",
    "IC50": 258
  },
  {
    "substance": "TNKFSGYPLYHSVYE",
    "unit_tag": "nM",
    "modifier": "=",
    "IC50": 489
  },
  {
    "substance": "Ac-NPDAENWNSQFEILEDAA",
    "unit_tag": "nM",
    "modifier": ">",
    "IC50": 10000
  },
  {
    "substance": "DLFVVYRDSIPHAAC",
    "unit_tag": "nM",
    "modifier": "=",
    "IC50": 2830
  },
  {
    "substance": "FPDWQNYTPGPGTRF",
    "unit_tag": "nM",
    "modifier": "=",
    "IC50": 35100
  },
  {
    "substance": "QSQKLLWQLNGRLEY",
    "unit_tag": "nM",
    "modifier": "=",
    "IC50": 108
  },
  {
    "substance": "ISLLLIQSWLEPVQF",
    "unit_tag": "nM",
    "modifier": "=",
    "IC50": 60
  },
  {
    "substance": "EMLQNIFAIFRQDSS",
    "unit_tag": "nM",
    "modifier": "=",
    "IC50": 1720
  },
  {
    "substance": "DHRQLQLSISSCLQQLSLLM",
    "unit_tag": "nM",
    "modifier": "=",
    "IC50": 67
  },
  {
    "substance": "SKIMKLPKLPISNGK",
    "unit_tag": "nM",
    "modifier": "=",
    "IC50": 3570
  },
  {
    "substance": "NVNLQKQLLTNHLIN [NVNLQKQLLTNHLIN]",
    "unit_tag": "nM",
    "modifier": "=",
    "IC50": 4450
  },
  {
    "substance": "LHKLQTYPRTNTGSG",
    "unit_tag": "nM",
    "modifier": "=",
    "IC50": 157
  },
  {
    "substance": "RPGLLGASVLGLDDI",
    "unit_tag": "nM",
    "modifier": "=",
    "IC50": 6000
  },
  {
    "substance": "LRAFQQLFLNTLSFV",
    "unit_tag": "nM",
    "modifier": "=",
    "IC50": 20
  },
  {
    "substance": "LLYTFRKDMDKVETF",
    "unit_tag": "nM",
    "modifier": "=",
    "IC50": 886
  },
  {
    "substance": "TEVLDFAFTDLTIVY",
    "unit_tag": "nM",
    "modifier": "=",
    "IC50": 561
  },
  {
    "substance": "YLVTGERGFFYTPKT",
    "unit_tag": "nM",
    "modifier": ">",
    "IC50": 25600
  },
  {
    "substance": "SAFLESQSMNKIGDD",
    "unit_tag": "nM",
    "modifier": "=",
    "IC50": 18700
  },
  {
    "substance": "QDVVLELTPQTEIDL",
    "unit_tag": "nM",
    "modifier": ">",
    "IC50": 33100
  },
  {
    "substance": "DMDKVETFLRIVQTR",
    "unit_tag": "nM",
    "modifier": ">",
    "IC50": 86700
  }
]

Data provenance: patent US20060079453A1
